Each recorded value in this set is attributed to ChEMBL document CHEMBL4270599.

Test system: DU-145
testDetails: Cytotoxicity against human DU145 cells after 48 hrs by SRB assay
Format: functional
assaySetup: DU-145, 48 h, read-out: TGI

[
  {
    "smilesInput": "C#C[C@@]1(O)[C@@H](CO)O[C@@H](n2cc(I)c3c(N)ncnc32)[C@@H]1O",
    "TGI": "> 100 µM"
  },
  {
    "smilesInput": "C#C[C@@]1(O)[C@@H](CO)O[C@@H](n2cc(Br)c3c(N)ncnc32)[C@@H]1O",
    "TGI": "> 100 µM"
  },
  {
    "smilesInput": "C#C[C@@]1(O)[C@@H](CO)O[C@@H](n2cc(Cl)c3c(N)ncnc32)[C@@H]1O",
    "TGI": "27 to 100 µM"
  }
]
